The entries below come with measured TGI values attached.
System: HT29 colon
Experiment: NCI tumour cell line growth inhibition, 48 h

Example results:
- compound: "CC12CC(=O)Nc3ccccc3N1C(c1ccccc1)=NO2 (stereo unspecified)"
  TGI: "> 100 µM"
- compound: "COc1ccc(C2=NC(=O)NC2c2ccc(OC)cc2)cc1 (stereo unspecified)"
  TGI: "27.9 µM"
- compound: "C[N+](C)(C)CC1CCCCC1=O (stereo unspecified)"
  TGI: "38.3 µM"
- compound: "COc1ccc2c(O)c(S(=O)(=O)c3ccc(C)cc3)c(=O)oc2c1OC"
  TGI: "> 100 µM"
- compound: "CCC(C)C(N)C(=O)N/N=C\\c1c2c(nc3ccccc13)-c1cc3c(c(=O)n1C2)COC(=O)[C@]3(O)CC (stereo partly specified)"
  TGI: "> 100 µM"

Look up TGI of O=C(c1cccs1)c1nccc2c1cnc1ccccc12 and report it. > 100 µM

Look up TGI of O=[N+]([O-])c1ccc(C2ON=C(c3ccccc3)N2C23CC4CC(CC(C4)C2)C3)cc1 (stereo unspecified) and report it. > 10 µM
